Target: human TLR8 (Homo sapiens, UniProt Q9NR97)
Sequence (Q9NR97 27-1041): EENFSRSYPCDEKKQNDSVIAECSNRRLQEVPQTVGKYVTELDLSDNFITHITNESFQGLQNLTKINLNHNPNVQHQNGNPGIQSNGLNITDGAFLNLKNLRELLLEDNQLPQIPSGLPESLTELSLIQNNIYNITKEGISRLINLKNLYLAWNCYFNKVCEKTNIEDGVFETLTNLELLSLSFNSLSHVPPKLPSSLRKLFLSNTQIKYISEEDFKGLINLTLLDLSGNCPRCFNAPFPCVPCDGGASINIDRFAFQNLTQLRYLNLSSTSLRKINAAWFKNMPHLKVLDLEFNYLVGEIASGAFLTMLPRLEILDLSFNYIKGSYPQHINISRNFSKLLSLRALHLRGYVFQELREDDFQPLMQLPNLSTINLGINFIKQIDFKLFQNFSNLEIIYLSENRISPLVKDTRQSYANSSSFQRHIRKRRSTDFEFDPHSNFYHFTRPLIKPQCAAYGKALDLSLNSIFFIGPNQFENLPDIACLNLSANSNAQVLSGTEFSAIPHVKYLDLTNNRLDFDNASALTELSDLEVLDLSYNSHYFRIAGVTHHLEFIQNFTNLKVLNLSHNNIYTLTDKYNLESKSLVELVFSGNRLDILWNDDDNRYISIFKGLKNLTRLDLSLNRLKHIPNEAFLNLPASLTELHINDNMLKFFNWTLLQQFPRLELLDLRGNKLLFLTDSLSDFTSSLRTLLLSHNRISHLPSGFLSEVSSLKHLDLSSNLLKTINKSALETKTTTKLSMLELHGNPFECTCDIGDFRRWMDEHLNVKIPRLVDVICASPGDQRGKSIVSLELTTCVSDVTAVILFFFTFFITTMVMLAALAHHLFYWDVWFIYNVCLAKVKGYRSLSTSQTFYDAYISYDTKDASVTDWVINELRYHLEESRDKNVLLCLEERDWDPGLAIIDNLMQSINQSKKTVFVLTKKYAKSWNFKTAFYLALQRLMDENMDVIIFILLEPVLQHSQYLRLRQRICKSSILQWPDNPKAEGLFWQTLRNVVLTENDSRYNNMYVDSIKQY
Experiment: TLR8 inhibition reporter assay (HEK-Blue cells, SEAP reporter, R848 stimulation)
Conditions: HEK-Blue cells overexpressing human TLR8, SEAP reporter, R848 15.9 μM
From the text: TLR7/8/9 Inhibition Reporter Assays HEK-Blue™-cells (Invivogen) overexpressing human TLR7, TLR8 or TLR9 receptors were used for screening inhibitors of these receptors using an inducible SEAP (secreted embryonic alkaline phosphatase) reporter gene under the control of the IFN-β minimal promoter fused to five NF-κB and AP-1-binding sites. […]
measureName: IC50 (nM)

Cc1c(-c2[nH]c3ccc(C4CNC4)cc3c2C(C)C)cn(C)c(=O)c1C: 13
Cc1cc(-c2[nH]c3ccc(C4CCCN(C(=O)C5C(C)(C)C5(C)C)C4)cc3c2C(C)C)cc(C)n1 (stereo not shown) [Example 200]: 244

I. CNCC(=O)N1CCOC(c2ccc3[nH]c(-c4cn5ncnc5c(C)c4C)c(C(C)C)c3c2)C1 (stereo not shown) [Example 340]
II. COc1cc(-c2[nH]c3ccc(C4CCCN(C)C4)cc3c2C(C)C)cn2ncnc12 (stereo not shown) [Example 241]
Query: Of I versus II , which is the one with smaller reported IC50? Mark your answer with the label of the selected entry.
Result: II
(II: 1.9 nM, I: 5.1 nM)
